# targetOrSystem: F protein of human metapneumovirus strain JPS02-76 (type B1), on infectious virus (human metapneumovirus, strain JPS02-76 …, UniProt Q6WB98 19-539)
# assayProcedure: cell-based or functional assay
measuredProperty: IC90, neutralizing activity (hMPV infection of LLC-MK2 cells; GraphPad Prism 6) (µg/mL)
# output: bare number, implied unit µg/mL

Input line: Query: IC90, neutralizing activity (hMPV infection of LLC-MK2 cells; GraphPad Prism 6); subject: EV046124 (antibody, human IgG1, lambda, V domains shown) VH: QVQLVQSGTELKKPGASVKVSCKASGYTFTDYSMHWLRQAPGESLEWMGWVNGGPLDTKYSPTFQDRVSFSRDVFATTAYMDLSSLGPEDTAVYYCARGWGITAYRGDAFDLWGQGTMVIVSS VL: SFVLTQPPSVSVAPGKSARITCGASNIESKSVHWYQQKPGQAPVVVVYDDDDRPSGIPERFSGSNSGNTATLIINRVEVGDEADYYCQVWDSTSDMYVFGAGTKVTVLG
Output line: 0.952
